Taken from patent US12589087B2.

Molecular target: GABAA α4β3γ2 (Homo sapiens, UniProt P18507+P28472+P48169)
Construct: host or cells: HEK 293 (stably expressing)
Sequence (P48169 36-554): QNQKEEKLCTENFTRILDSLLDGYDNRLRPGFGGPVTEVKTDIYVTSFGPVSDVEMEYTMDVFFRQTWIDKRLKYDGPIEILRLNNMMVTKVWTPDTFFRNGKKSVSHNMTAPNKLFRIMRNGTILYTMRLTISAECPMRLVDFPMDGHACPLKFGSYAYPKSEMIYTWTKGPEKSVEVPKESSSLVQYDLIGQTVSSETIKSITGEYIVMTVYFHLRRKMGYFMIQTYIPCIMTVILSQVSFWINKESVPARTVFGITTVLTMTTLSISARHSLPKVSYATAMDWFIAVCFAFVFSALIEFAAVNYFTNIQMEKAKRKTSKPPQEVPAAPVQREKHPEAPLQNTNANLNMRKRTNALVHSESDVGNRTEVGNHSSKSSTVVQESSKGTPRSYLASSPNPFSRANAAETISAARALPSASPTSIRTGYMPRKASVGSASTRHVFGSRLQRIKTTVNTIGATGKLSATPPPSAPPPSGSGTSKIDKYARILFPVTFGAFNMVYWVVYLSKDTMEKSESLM
Sequence (P28472 26-473): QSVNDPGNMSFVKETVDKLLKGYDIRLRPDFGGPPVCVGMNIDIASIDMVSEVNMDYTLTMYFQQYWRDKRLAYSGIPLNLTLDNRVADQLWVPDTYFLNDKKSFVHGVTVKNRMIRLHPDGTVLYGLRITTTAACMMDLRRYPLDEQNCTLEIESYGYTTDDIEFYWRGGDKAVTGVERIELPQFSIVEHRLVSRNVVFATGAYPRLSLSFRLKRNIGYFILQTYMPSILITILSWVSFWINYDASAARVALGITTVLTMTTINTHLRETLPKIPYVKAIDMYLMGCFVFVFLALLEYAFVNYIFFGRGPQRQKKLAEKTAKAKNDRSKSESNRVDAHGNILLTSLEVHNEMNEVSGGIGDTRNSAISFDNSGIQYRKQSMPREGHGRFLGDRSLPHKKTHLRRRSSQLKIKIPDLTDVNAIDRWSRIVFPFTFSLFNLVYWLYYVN
Sequence (P18507 40-475): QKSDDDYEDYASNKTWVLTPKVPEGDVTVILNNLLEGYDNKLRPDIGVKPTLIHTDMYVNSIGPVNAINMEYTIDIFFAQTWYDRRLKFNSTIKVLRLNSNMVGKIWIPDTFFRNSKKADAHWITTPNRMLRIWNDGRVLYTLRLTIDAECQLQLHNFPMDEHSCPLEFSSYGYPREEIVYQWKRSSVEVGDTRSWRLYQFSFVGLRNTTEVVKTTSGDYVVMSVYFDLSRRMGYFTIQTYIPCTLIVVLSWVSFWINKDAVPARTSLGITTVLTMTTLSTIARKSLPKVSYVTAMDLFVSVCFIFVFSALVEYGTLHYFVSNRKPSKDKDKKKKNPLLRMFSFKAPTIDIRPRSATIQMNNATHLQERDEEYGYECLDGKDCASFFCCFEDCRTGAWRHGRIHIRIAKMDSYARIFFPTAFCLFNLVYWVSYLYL
Assay: FLIPR functional assay, HEK 293 cells (agonist/PAM/antagonist)
Assay type: cell-based
Conditions: top concentration 1 mM, read-out: EC50, functional agonist receptor assay
property: EC50

compound: C[C@](N)(CCC(=O)O)C(=O)O [(S)-2MeGlu, (S)-2-methylglutamic acid]
result: > 1000 µM

Below: the item to evaluate.
The value of EC50 measured for the compound C[C@@](N)(CCC(=O)O)C(=O)O [(R)-2MeGlu, (R)-2-methylglutamic acid] turned out to be > 1000 µM
